- system: Stimulator of interferon genes protein (Homo sapiens, UniProt Q86WV6)
- Sequence (Q86WV6 whole entry): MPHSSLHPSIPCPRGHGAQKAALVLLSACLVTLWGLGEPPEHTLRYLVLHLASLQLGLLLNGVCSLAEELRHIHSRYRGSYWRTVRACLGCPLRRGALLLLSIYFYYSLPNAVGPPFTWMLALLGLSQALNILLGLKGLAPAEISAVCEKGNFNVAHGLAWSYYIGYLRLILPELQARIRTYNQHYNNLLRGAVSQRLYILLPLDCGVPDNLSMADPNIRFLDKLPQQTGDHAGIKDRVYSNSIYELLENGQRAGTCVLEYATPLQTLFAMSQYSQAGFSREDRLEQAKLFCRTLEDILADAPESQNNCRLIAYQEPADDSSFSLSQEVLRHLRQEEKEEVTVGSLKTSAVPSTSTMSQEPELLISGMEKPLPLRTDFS
measured.metric: IC50

Exercise: Report IC50 for COC1C=C2CN(C(=O)CCC(=O)O)CC2=CC1OCCCOC1C=C2CN(C(=O)CCC(=O)O)CC2=CC1OC (stereo unspecified) [US20250108123, Example I-1] tested on Stimulator of interferon genes protein (Homo sapiens, UniProt Q86WV6).
Solution: < 100 pM

All values here come from BindingDB's records for patent US20250108123.
